- Target or test system: human ORL-1 receptor (opioid receptor like 1) (human, UniProt P41146 1-370)
- Sequence (P41146 whole entry): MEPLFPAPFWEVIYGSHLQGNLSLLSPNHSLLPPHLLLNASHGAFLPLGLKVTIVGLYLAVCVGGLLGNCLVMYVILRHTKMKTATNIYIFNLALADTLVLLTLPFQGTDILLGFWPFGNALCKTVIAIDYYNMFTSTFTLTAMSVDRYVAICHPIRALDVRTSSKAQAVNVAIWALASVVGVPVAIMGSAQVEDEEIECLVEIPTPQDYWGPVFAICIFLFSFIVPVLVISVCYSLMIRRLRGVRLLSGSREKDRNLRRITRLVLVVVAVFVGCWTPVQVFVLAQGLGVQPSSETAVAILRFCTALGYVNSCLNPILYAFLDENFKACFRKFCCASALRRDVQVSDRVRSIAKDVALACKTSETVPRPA
- Run description: cell-based or functional assay
Square brackets hold non-standard residues; d marks the D form. Trp(5-CN) = N#Cc1ccc2[nH]cc(C[C@H](N)C(=O)O)c2c1; Phe(4-F) = N[C@@H](Cc1ccc(F)cc1)C(=O)O; Ahx = NCCCCCC(=O)O
Value type: % Stimulation of [35S]GTPγS binding (%)
Note: unit % is implicit; provide only the numeric part.

Some binders with recorded % Stimulation of [35S]GTPγS binding:
Ac-RYYR[Trp(5-CN)]R-NH2 (SMILES CC(=O)N[C@@H](CCCNC(=N)N)C(=O)N[C@@H](Cc1ccc(O)cc1)C(=O)N[C@@H](Cc1ccc(O)cc1)C(=O)N[C@@H](CCCNC(=N)N)C(=O)N[C@@H](Cc1c[nH]c2ccc(C#N)cc12)C(=O)N[C@@H](CCCNC(=N)N)C(N)=O, also called Ac-Arg-Tyr-Tyr-Arg-Trp(5-CN)-Arg-NH2) [VII-51-A] = 49.1
Ac-RY[Phe(4-F)]RWR-NH2 (SMILES CC(=O)N[C@@H](CCCNC(=N)N)C(=O)N[C@@H](Cc1ccc(O)cc1)C(=O)N[C@@H](Cc1ccc(F)cc1)C(=O)N[C@@H](CCCNC(=N)N)C(=O)N[C@@H](Cc1c[nH]c2ccccc12)C(=O)N[C@@H](CCCNC(=N)N)C(N)=O, also called Ac-Arg-Tyr-Phe(4-F)-Arg-Trp-Arg-NH2) [VII-61-B] = 70.4

For the next question, use this binder.
Annotate the binder Ac-RYY[Ahx]WR-NH2 (SMILES CC(=O)N[C@@H](CCCNC(=N)N)C(=O)N[C@@H](Cc1ccc(O)cc1)C(=O)N[C@@H](Cc1ccc(O)cc1)C(=O)NCCCCCC(=O)N[C@@H](Cc1c[nH]c2ccccc12)C(=O)N[C@@H](CCCNC(=N)N)C(N)=O, also called Ac-Arg-Tyr-Tyr-ε-aminocaproyl-Trp-Arg-NH2) [VII-55-A] with its measured % Stimulation of [35S]GTPγS binding.
26.6
